Tested on: C. perfringens neuraminidase
Type: biochemical, Clostridium perfringens
REPORTED_METRIC: Potency Index*, bacterial neuraminidase, compared to std influenza A

MOLECULE	REPORTED_VALUE
CCCCCc1cc(O)c2c(c1)OC1(C)CCC3C1C2C3(C)C (stereo not drawn) [CBL, cannabicyclol]	96.12
C=C(C)[C@@H]1CCC(C)=C[C@H]1c1c(O)cc(CCCCC)cc1O [CBD, cannabidiol, reference compound]	4.53
CCCCCc1cc(O)c2c(c1)OC(C)(C)c1ccc(C)cc1-2 [CBN, cannabinol]	100.00
CCCCCc1cc(O)c2c(c1)OC(C)(C)[C@@H]1CCC(C)=C[C@@H]21 [THC, tetrahydrocannabinol, reference compound]	20.30

Each molecule below has a recorded value; state its Potency Index*, bacterial neuraminidase, compared to std influenza A.
1. CCCCCc1cc(O)c(C/C=C(\C)CCC=C(C)C)c(O)c1 [CBG, cannabigerol]
2. CCCCCc1cc(O)c2c(c1)OC(C)(CCC=C(C)C)C=C2 (stereo not drawn) [CBC, cannabichromene]

Marked response:
1. 6.92
2. 56.89

###

SUBJECT_OF_TEST: UniProt P0DTD1
METHOD: biochemical
Type: biochemical
REPORTED_METRIC: inhibition at 100 µg/mL

Some entries whose results are on file:
COMPOUND	SUBJECT_OF_TEST	inhibition at 100 µg/mL
CCCCCc1cc(O)c2c(c1)oc1c(C)ccc(C(C)C)c12	UniProt P0DTD1	65.3%
CCCCCc1cc(O)c(C/C=C(\C)CCC=C(C)C)c(O)c1	UniProt P0DTD1	> 80%
C=C(C)C1CCC(C)(O)C2Oc3cc(CCCCC)cc(O)c3C12 (centres unmarked)	UniProt P0DTD1	80.3%
CCCCCc1cc(O)c2c(c1)OC(C)(CCC=C(C)C)C=C2 (centres unmarked)	UniProt P0DTD1	75%

Exam item: For the record CCCCCc1cc(O)c2c(c1)OC1(C)CCC3C1C2C3(C)C (centres unmarked) , what value of inhibition at 100 µg/mL is listed for UniProt P0DTD1?
Marked response: > 80%

###

System: C. perfringens neuraminidase
Assay type: biochemical, Clostridium perfringens
REPORTED_METRIC: Potency Index, bacterial (C. perfringens) neuraminidase
Answers are plain numbers.

Some entries whose results are on file:
COMPOUND	REPORTED_VALUE
C=C(C)[C@@H]1CCC(C)=C[C@H]1c1c(O)cc(CCCCC)cc1O [CBD, cannabidiol, reference compound]	0.41
CCCCCc1cc(O)c2c(c1)OC(C)(C)c1ccc(C)cc1-2 [CBN, cannabinol]	100
CCCCCc1cc(O)c2c(c1)OC(C)(C)[C@@H]1CCC(C)=C[C@@H]21 [THC, tetrahydrocannabinol, reference compound]	1.85
CCCCCc1cc(O)c2c(c1)OC1(C)CCC3C1C2C3(C)C (stereo not drawn) [CBL, cannabicyclol]	8.75
CCCCCc1cc(O)c(C/C=C(\C)CCC=C(C)C)c(O)c1 [CBG, cannabigerol]	0.63

Please turn your attention to the following entry.
Exam item: // returns reported Potency Index, bacterial (C. perfringens) neuraminidase for input CCCCCc1cc(O)c2c(c1)OC(C)(CCC=C(C)C)C=C2 (stereo not drawn) [CBC, cannabichromene]
Marked response: 5.18

###

SUBJECT_OF_TEST: SARS-CoV-2 main protease (Severe acute respiratory syndrome coronavirus 2)
METHOD: biochemical
Assay type: biochemical
Exercise: for every item that follows, state its recorded Potency Index, SARS-CoV-2 main protease.
Give bare numbers.

Some entries whose results are on file:
COMPOUND	REPORTED_METRIC	REPORTED_VALUE
CCCCCc1cc(O)c2c(c1)oc1c(C)ccc(C(C)C)c12	Potency Index, SARS-CoV-2 main protease	100
CCCCCc1cc(O)c2c(c1)OC(C)(CCC=C(C)C)C=C2 (stereo not drawn)	Potency Index, SARS-CoV-2 main protease	100
C=C(C)C1CCC(C)(O)C2Oc3cc(CCCCC)cc(O)c3C12 (stereo not drawn)	Potency Index, SARS-CoV-2 main protease	100
C=C(C)[C@@H]1CCC(C)=C[C@H]1c1c(O)cc(CCCCC)cc1O [CBD, cannabidiol, reference compound]	Potency Index, SARS-CoV-2 main protease	4.43
CCCCCc1cc(O)c2c(c1)OC(C)(C)c1ccc(C)cc1-2	Potency Index, SARS-CoV-2 main protease	100

Exam item: // returns reported Potency Index, SARS-CoV-2 main protease for input CCCCCc1cc(O)c2c(c1)OC(C)(C)[C@@H]1CCC(C)=C[C@@H]21 [THC, tetrahydrocannabinol, reference compound]
Marked response: 38.64

###

SUBJECT_OF_TEST: C. perfringens neuraminidase
EXPERIMENTAL_SETUP: read-out: IC50 Value C. perfringen Neuraminidase
REPORTED_METRIC: IC50
Answer with the figure and its unit, nothing else.

COMPOUND	REPORTED_VALUE
CCCCCc1cc(O)c2c(c1)OC(C)(CCC=C(C)C)C=C2 (centres unmarked)	56.9 µM

Please turn your attention to the following entry.
Exam item: For the record CCCCCc1cc(O)c2c(c1)OC1(C)CCC3C1C2C3(C)C (centres unmarked) , what value of IC50 is listed for C. perfringens neuraminidase?
Marked response: 96.1 µM
